- experimental_target: T1, M7
- T1 construct: also called PD1 mutant M7
- protocol_notes: ELISA, 1 ug/ml
property_name: OD490
The response must contain the number and no unit.

Worked set:
PD1-45D6(A/5B2) (antibody, V domains shown, scFv-phage in the screening ELISA; whole IgG in the other assays; also called 45D6-5B2; PD1 45D6 5B2) VH: QVQLVESGGGVVQPGRSLRLSCAASGFTFSFYAMHWVRQAPGKGLEWVAVISYDGNDKYYADSVKGRFTISRDNSKNTLYLQMNSLRAEDTAVYYCVPTTFEYWGQGTLVTVSS VL: DIVMTQTPLSPPVTPGEPASISCRSSQSLLDSDDGNTYLDWYLQKPGQSPQLLIYTLSHRASGVPDRFSGSGSGTDFTLEISRVEAEDVGVYYCMQRRDFPFTFGQGTKLDIK    0.238
PD1-49A2 (antibody, V domains shown, scFv-phage in the screening ELISA; whole IgG in the other assays; also called Parent 49A2) VH: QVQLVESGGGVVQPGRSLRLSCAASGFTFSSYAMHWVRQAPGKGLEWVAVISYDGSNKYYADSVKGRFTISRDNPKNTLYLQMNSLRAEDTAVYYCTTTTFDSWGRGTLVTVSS VL: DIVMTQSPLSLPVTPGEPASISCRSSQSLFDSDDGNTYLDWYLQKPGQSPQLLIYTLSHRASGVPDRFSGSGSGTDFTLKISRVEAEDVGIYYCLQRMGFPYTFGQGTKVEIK    0.4

// next item, OD490 requested
Give the measured OD490 for PD1-41C9 (antibody, V domains shown, scFv-phage in the screening ELISA; whole IgG in the other assays) VH: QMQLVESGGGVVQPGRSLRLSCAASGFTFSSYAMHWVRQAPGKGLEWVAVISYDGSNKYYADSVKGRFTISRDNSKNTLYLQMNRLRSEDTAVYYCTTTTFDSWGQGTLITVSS VL: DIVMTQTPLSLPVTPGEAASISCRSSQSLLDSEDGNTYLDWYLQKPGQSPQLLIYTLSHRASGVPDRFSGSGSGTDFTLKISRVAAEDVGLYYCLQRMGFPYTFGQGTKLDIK
0.8
